Data provenance is the FLAb antibody collection.

# Protocol: patients with anti-drug antibodies; higher = more immunogenic
Please provide measured patients with anti-drug antibodies for the entries that follow.

Examples from the recorded data:
# Protein, patients with anti-drug antibodies
records = [
    ("unnamed (protein) chain 1: QVKLQESGAELARPGASVKLSCKASGYTFTNYWMQWVKQRPGQGLDWIGAIYPGDGNTRYTHKFKGKATLTADKSSSTAYMQLSSLASEDSGVYYCARGEGNYAWFAYWGQGTTVTVSS chain 2: DIELTQSPASLSASVGETVTITCQASENIYSYLAWHQQKQGKSPQLLVYNAKTLAGGVSSRFSGSGSGTHFSLKIKSLQPEDFGIYYCQHHYGILPTFGGGTKLEIK", "68.1%"),
    ("unnamed (protein) chain 1: QVQLVQSGGGLVQPGGSLRLSCAASGFTFSSYYMSWVRQAPGKGLEWVSGIYSDGTTHYGDSVKGRFTISRDNAKNTVYLQLNSLRAEDTAMYYCAKGAGPTWWYALDAWGQGTLVTVSS chain 2: DIQLTQSPSSVSVSVGERVTIDCKSSQSVLSASNTYLNWYQQKPGQAPQLLIYYASTRESGVPDRFSGSGSGTDFTLTISSLQAEDAAVYYCQQAYRAPVTFGQGTKLEIK", "0%"),
]

Would you kindly look at the next entry?
Lookup result for unnamed (protein) chain 1: QAYLQQSGAELVRPGASVKMSCKASGYTFTSYNMHWVKQTPRQGLEWIGGIYPGNGDTSYNQKFKGKATLTVGKSSSTAYMQLSSLTSEDSAVYFCARYDYNYAMDYWGQGTSVTVSS chain 2: QIVLSQSPAILSASPGEKVTMTCRASSSVSYMHWYQQKPGSSPKPWIYATSNLASGVPARFSGSGSGTSYSFTISRVEAEDAATYYCQQWTFNPPTFGGGTRLEIK ; measured patients with anti-drug antibodies: 0%
